// provenance: PubChem BioAssay

Assay: SK-BR-3 cell growth inhibitors, pilot screen, 24 h, human (AID 572);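 also: compound exposure lasted between 18 and 24 h rather than exactly 24 h; 100% = carrier-treated control wells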
Conditions: SK-BR-3 viability, CellTiter-Glo luminescence, at 10 µM, stronger effect = lower value
propertyMeasured: viability (%)

molecule=COc1cc(-c2nc(S(=O)(=O)c3ccccc3)c(N3CCOCC3)o2)cc(OC)c1OC unittag=% obsvalue=82.5
molecule=COC(=O)c1ccc(CNC(=O)CSc2nc3sc(C)c(C)c3c(=O)n2C)o1 unittag=% obsvalue=93.5
molecule=COc1ccc(C(=O)Nn2c(C3CCC3)nc3ccccc3c2=O)c(OC)c1 unittag=% obsvalue=93.5
molecule="C[N+]12CCC(CC1)C(OC(=O)C(O)(c1ccccc1)c1ccccc1)C2 (configuration not stated)" unittag=% obsvalue=97.5
molecule=O=C(NCCCN1CCN(CCCNC(=O)c2ccc(F)cc2)CC1)c1ccc(F)cc1 unittag=% obsvalue=92.5
molecule=Cc1cc(=O)n2nc(-c3ccccc3)sc2n1 unittag=% obsvalue=101
molecule=O=c1ccc(S(=O)(=O)N2CCC(Cc3ccccc3)CC2)c[nH]1 unittag=% obsvalue=86
molecule=COCCNc1nc(SCC(=O)N2CCN(c3ccccc3)CC2)nc2ccccc12 unittag=% obsvalue=72
molecule="O=C(C1CCCN(S(=O)(=O)c2ccc(Br)s2)C1)N1CCCCCC1 (configuration not stated)" unittag=% obsvalue=83.5
molecule="CCCCN(C)CCCNC(=O)CC1Oc2ccccc2NC1=O (configuration not stated)" unittag=% obsvalue=86.5
molecule=O=S(=O)(c1cccs1)N1CCN(C/C=C/c2ccccc2)CC1 unittag=% obsvalue=101
molecule=Cc1nnc(NS(=O)(=O)c2ccc(N)cc2)s1 unittag=% obsvalue=93.5
molecule="Cc1cc(C)n(-c2nc(C)nc3sc4c(c23)CCC(C)C4)n1 (configuration not stated)" unittag=% obsvalue=92.5
molecule=O=c1c2c3c(sc2n2cnnc2n1CCc1ccccc1)CCCC3 unittag=% obsvalue=96.5
molecule=O=C(N1CCN(Cc2ccccc2)CC1)C12CC3CC(CC(C3)C1)C2 unittag=% obsvalue=83
molecule=CC(C)(S)[C@@H](N)C(=O)O unittag=% obsvalue=102
molecule=C/C(N)=C(/C#N)C(=O)COC(=O)CCSc1ccccc1 unittag=% obsvalue=97.5
molecule="NC(=O)NC(c1ccccc1)c1ccccc1F (configuration not stated)" unittag=% obsvalue=91
molecule=c1coc(-c2nnc(NC3=NCCC3)o2)c1 unittag=% obsvalue=100
molecule=CCOC(=O)Cc1c(C)c2c(O)cc(O)cc2oc1=O unittag=% obsvalue=84.5
molecule=COCCCn1c(SCC(=O)Nc2cccc(C)n2)nnc1-c1ccco1 unittag=% obsvalue=95
molecule=Cn1cccc1Cc1nnc(SCC(=O)Nc2ccc(F)cc2F)n1-c1ccc(F)cc1 unittag=% obsvalue=84
molecule=CC(C)(C)n1ncc2c(=O)n(CC(=O)NCc3ccco3)cnc21 unittag=% obsvalue=91.5
molecule=COCCNC(=O)c1cc2c(-c3ccccc3F)nn(C)c2s1 unittag=% obsvalue=109
molecule=CCOC(=O)c1sc(NC(=O)CNC(=O)Cn2cnc3sc(C)c(C)c3c2=O)nc1C unittag=% obsvalue=94
molecule=Cc1nc(NCc2ccco2)c2oc3ccccc3c2n1 unittag=% obsvalue=114
molecule="OC(CCN1CCCCC1)(c1ccccc1)C1CCCCC1 (configuration not stated)" unittag=% obsvalue=69.5
molecule=CCc1nnc(NC(=O)c2cc3ccccc3oc2=O)s1 unittag=% obsvalue=104
molecule="O=C1CSC(c2cn(-c3ccccc3)nc2-c2ccccc2)N1Cc1ccco1 (configuration not stated)" unittag=% obsvalue=97
molecule=CS(=O)(=O)Nc1ccc([N+](=O)[O-])cc1Oc1ccccc1 unittag=% obsvalue=118
molecule=COc1ccc(C2=Nn3c(nnc3-c3ccccc3)SC2)cc1OC unittag=% obsvalue=124
molecule=CCCN(CCC)S(=O)(=O)c1ccc(NS(C)(=O)=O)cc1 unittag=% obsvalue=110
molecule="CCN(CC)S(=O)(=O)N1CCC(C(=O)NC2CCCc3ccccc32)CC1 (configuration not stated)" unittag=% obsvalue=78
molecule=COc1cc(Cl)c(C)cc1NC(=O)COC(=O)c1cnc(C)cn1 unittag=% obsvalue=108
molecule=O=C(CSc1nnc2sc3ccccc3n12)c1ccco1 unittag=% obsvalue=95
molecule=O=C(c1cn(-c2ccccc2)nc1-c1cccs1)N1CCN(c2ccccn2)CC1 unittag=% obsvalue=101
molecule=Cc1ccc(C)c(N2CCN(C(=O)c3ccc(CS(=O)(=O)c4ccccc4C)o3)CC2)c1 unittag=% obsvalue=82
molecule="COc1ccccc1CN1C(=O)CCC1(C)C(=O)NC1CCCCCC1 (configuration not stated)" unittag=% obsvalue=83
molecule=CNC(=O)CSc1nnc(-c2cc(C)cc(C)c2)o1 unittag=% obsvalue=94.5
molecule=C=COC(=O)CSc1snc(SCC(=O)OC)c1C#N unittag=% obsvalue=85.5
molecule=CCCNS(=O)(=O)c1ccc(OCC(=O)NCc2ccco2)cc1 unittag=% obsvalue=93.5
molecule=CC(=O)Nn1c(C)nnc1-n1nc(C)cc1C unittag=% obsvalue=126
molecule="Cc1cc(C)n(C(=O)CNC(=O)C2COc3ccccc3O2)n1 (configuration not stated)" unittag=% obsvalue=122
molecule="CCn1cc(C2=NCC(C)O2)c2ccccc21 (configuration not stated)" unittag=% obsvalue=96.5
molecule=COCCCn1c2nc3ccccc3nc2c2c(=O)n(-c3ccccc3OC)cnc21 unittag=% obsvalue=97.5
molecule=c1ccc(-n2nnnc2OCCOc2nnnn2-c2ccccc2)cc1 unittag=% obsvalue=92
molecule="CCOC(=O)C1=C(C)N=C2SCCC(=O)N2C1c1cc(Br)ccc1OC (configuration not stated)" unittag=% obsvalue=94.5

---

Experiment: growth suppression of yeast trafficking mutant, preliminary HTS, modulators of trafficking downstream of Golgi apparatus project, 1536-format plate, OD 615 nm (AID 637)
Settings: yeast transport mutant growth, absorbance 615 nm, 18 h; stronger effect = higher value
propertyMeasured: inhibition (%)

compound=CC(=O)N1C(=O)C2(Nc3ccccc3N2)c2ccccc21 propertymeasured=inhibition unittag=% obsvalue=-9.5
compound=C[C@]12CCC(=O)C=C1CC[C@@H]1[C@@H]2[C@@H](O)C[C@@]2(C)[C@H]1CC[C@]2(O)C(=O)COC(=O)CCC(=O)O propertymeasured=inhibition unittag=% obsvalue=6.33
compound=O=C(CSc1nc2ccccc2c(=O)n1CCC(=O)N1CCCCC1)NCc1ccccc1 propertymeasured=inhibition unittag=% obsvalue=-2.86
compound=Cc1ccc(-n2nnnc2SCC(=O)N2CCN(C(=O)c3ccco3)CC2)c(C)c1 propertymeasured=inhibition unittag=% obsvalue=-2.18
compound="O=C(O)C1CC(=O)N(Cc2ccccc2)C1 (stereo not drawn)" propertymeasured=inhibition unittag=% obsvalue=6.23
compound=CCCCCn1c(CN2CCN(C)CC2)nc2c1c(=O)n(C)c(=O)n2C propertymeasured=inhibition unittag=% obsvalue=-2.67
compound="O=C1c2ccccc2C(=O)N1CC(O)Cn1nnc2ccccc21 (stereo not drawn)" propertymeasured=inhibition unittag=% obsvalue=-3.71
compound=CCCCCC(=O)N1CC2(CC)CN(C(=O)CCCCC)CC(CC)(C1)C2=O propertymeasured=inhibition unittag=% obsvalue=-7.33
compound=Cc1ccc(-c2cc(C(=O)NCc3ccc4c(c3)OCO4)no2)cc1 propertymeasured=inhibition unittag=% obsvalue=-0.33
compound="O=C(NCc1ccccn1)C(C(=O)c1ccc(F)cc1)n1ccccc1=O (stereo not drawn)" propertymeasured=inhibition unittag=% obsvalue=4.1
compound=O=[n+]1c2c(n([O-])c3cc(F)c(N4CCCC4)cc31)CCC2 propertymeasured=inhibition unittag=% obsvalue=1.9
compound="COc1ccc(CN(C(=O)c2oc3ccccc3c2C)C2CCS(=O)(=O)C2)cc1 (stereo not drawn)" propertymeasured=inhibition unittag=% obsvalue=-11.1
compound=c1ccc(SCc2nc3ccccc3[nH]2)nc1 propertymeasured=inhibition unittag=% obsvalue=22.3
compound=O=C(NCc1ccc2c(c1)OCO2)c1ccccn1 propertymeasured=inhibition unittag=% obsvalue=-12.1
compound=Cc1cc(C)c(C)c(S(=O)(=O)Nc2ccc(O)cc2)c1C propertymeasured=inhibition unittag=% obsvalue=-1.61
compound=CCOC(=O)c1cnn(-c2cc(C)c3cc(C)cc(C)c3n2)c1N propertymeasured=inhibition unittag=% obsvalue=-8.89
compound=O=C(CN1C(=O)c2cccc3cccc1c23)N1CCN(c2ccccc2)CC1 propertymeasured=inhibition unittag=% obsvalue=-1.5
compound=CCOC(=O)N1CCN(S(=O)(=O)c2cc(Cl)ccc2Cl)CC1 propertymeasured=inhibition unittag=% obsvalue=-0.32
compound=O=C(CN1C(=O)CCSc2ccccc21)Nc1ccccc1 propertymeasured=inhibition unittag=% obsvalue=-7.78
compound=COC(=O)c1ccc2ncccc2c1 propertymeasured=inhibition unittag=% obsvalue=7.7
compound=Cc1cc(C)n2nc(S(=O)(=O)N(C)Cc3ccccc3)nc2n1 propertymeasured=inhibition unittag=% obsvalue=-5.67
compound=O=C(NCc1ccco1)c1cccn2c(=O)c3sccc3nc12 propertymeasured=inhibition unittag=% obsvalue=-7.87
compound="COc1cccc(Cn2c(OCC3CCCO3)nc3c2c(=O)n(C)c(=O)n3C)c1 (stereo not drawn)" propertymeasured=inhibition unittag=% obsvalue=3.77

---

Catalogue of compounds with associated viability
Assay: reversal of MRP1-mediated doxorubicin resistance, pilot screen, H69AR cells, doxorubicin co-treatment (AID 601)
Details: H69AR cells, CellTiter-Glo, 72 h; compound alone cytotoxicity; at 10 µM
propertyMeasured: viability

compound="CCOC(=O)c1ccc(N2C(=O)CC(NC3CCN(C(=O)c4ccc(F)cc4)CC3)C2=O)cc1 (stereo not given)" obsvalue=110%
compound=CCCN1CCN(C(=O)Cn2c(=O)oc3cc(S(=O)(=O)NCc4ccccc4)ccc32)CC1 obsvalue=95.3%
compound=COc1ccc(OCC(=O)Nc2cccc3ncccc23)cc1 obsvalue=91.4%
compound=C=CCn1c(C)cc(C(=O)CSc2nc3ccccc3o2)c1C obsvalue=95.6%
compound="CC(NC(=O)Nc1ccccc1)C(c1cccs1)N1CCOCC1 (stereo not given)" obsvalue=110%
